Tested on: RARa:RXR (NR concentration 270 nM, RXRa partner concentration 90 nM)
Experiment: PBM binding z-score (relative to random genomic background probes); higher = stronger binding; sequences stand for … in GC…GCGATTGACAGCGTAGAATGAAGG
Exercise: for every item that follows, state its recorded PBM binding z-score.
Numbers only.

For orientation, consider the following solved cases.
>>> result_number("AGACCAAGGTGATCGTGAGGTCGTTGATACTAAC")
1.72
>>> result_number("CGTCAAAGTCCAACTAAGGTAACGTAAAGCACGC")
1.23
>>> result_number("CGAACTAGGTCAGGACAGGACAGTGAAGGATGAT")
0.766

Could you tell me PBM binding z-score for each of these sequences? They are listed below.
1. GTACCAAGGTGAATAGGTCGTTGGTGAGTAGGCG
2. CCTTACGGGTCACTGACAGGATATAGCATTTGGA

**A:**
[1.9, 3.85]

Could you tell me PBM binding z-score for each of these sequences? They are listed below.
1. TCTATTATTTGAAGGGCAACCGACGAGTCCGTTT
2. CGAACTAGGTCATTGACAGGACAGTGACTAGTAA

**A:**
0.961
2.44

Could you tell me PBM binding z-score for each of these sequences? They are listed below.
1. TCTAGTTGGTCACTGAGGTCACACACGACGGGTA
2. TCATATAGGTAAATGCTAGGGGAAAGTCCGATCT
3. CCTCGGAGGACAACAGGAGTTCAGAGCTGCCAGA
4. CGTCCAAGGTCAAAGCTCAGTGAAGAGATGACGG
5. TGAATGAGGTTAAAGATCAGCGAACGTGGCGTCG

**A:**
1: 5.06; 2: 0.628; 3: 0.366; 4: 4.6; 5: 2.82

Could you tell me PBM binding z-score for each of these sequences? They are listed below.
1. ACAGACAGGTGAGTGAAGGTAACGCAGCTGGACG
2. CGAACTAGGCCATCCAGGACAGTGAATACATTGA
3. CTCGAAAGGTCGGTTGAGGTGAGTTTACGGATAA
4. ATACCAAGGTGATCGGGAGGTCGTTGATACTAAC
5. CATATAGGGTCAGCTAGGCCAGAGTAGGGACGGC
6. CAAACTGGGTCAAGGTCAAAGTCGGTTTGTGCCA
7. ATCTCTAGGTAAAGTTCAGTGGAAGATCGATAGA

**A:**
1. 0.359
2. 0.254
3. 2.16
4. 2.08
5. 3.31
6. 5.2
7. 1.44

Could you tell me PBM binding z-score for each of these sequences? They are listed below.
1. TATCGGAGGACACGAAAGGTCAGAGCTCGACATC
2. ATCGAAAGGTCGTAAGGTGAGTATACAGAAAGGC
3. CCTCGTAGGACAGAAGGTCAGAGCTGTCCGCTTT
4. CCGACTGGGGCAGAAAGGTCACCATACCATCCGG

**A:**
1: 4.73; 2: 4.21; 3: 2.1; 4: 6.06

Could you tell me PBM binding z-score for each of these sequences? They are listed below.
1. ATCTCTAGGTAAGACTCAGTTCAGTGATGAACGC
2. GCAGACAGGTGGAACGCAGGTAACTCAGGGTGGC
3. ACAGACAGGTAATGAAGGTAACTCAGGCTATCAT
4. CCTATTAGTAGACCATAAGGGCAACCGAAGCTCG
5. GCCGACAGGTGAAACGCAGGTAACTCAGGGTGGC

**A:**
[0.24, -0.428, 0.263, 0.768, 0.331]

Could you tell me PBM binding z-score for each of these sequences? They are listed below.
1. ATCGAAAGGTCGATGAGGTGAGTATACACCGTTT
2. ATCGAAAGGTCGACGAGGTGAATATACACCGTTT
3. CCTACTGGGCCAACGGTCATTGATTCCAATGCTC
4. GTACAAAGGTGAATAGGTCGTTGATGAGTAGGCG
5. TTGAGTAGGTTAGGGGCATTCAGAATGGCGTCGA

**A:**
2.98
4.49
-0.143
3.42
0.894

Could you tell me PBM binding z-score for each of these sequences? They are listed below.
1. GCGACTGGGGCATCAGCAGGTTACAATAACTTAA
2. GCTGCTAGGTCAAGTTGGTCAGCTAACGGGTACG
3. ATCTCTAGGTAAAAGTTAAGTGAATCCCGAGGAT
4. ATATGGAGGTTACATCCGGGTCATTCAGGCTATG
5. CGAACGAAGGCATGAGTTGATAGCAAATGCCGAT

**A:**
0.651
2.19
-0.144
4.94
-0.544

----------
Test system: PPARg:RXRa IVT, anti-PPARg (NR concentration 270 nM, RXRa partner concentration 90 nM)
Assay: PBM binding z-score (relative to random genomic background probes); higher = stronger binding; sequences stand for … in GC…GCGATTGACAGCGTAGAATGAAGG
property_measured: PBM binding z-score
One number for each entry.

>>> result_number("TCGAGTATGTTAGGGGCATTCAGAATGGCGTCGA")
-0.000912
>>> result_number("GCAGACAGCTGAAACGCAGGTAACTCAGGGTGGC")
-0.619
>>> result_number("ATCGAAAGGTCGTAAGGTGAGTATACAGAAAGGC")
2.13
>>> result_number("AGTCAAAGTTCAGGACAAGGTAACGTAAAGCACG")
2.21
>>> result_number("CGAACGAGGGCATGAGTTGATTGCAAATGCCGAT")
1.87
>>> result_number("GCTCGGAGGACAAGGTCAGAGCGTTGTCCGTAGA")
0.658

Could you tell me PBM binding z-score for each of these sequences? They are listed below.
1. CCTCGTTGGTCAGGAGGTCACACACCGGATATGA
2. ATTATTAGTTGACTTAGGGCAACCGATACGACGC
3. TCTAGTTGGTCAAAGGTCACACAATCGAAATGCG
4. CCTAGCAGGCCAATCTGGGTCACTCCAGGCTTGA
5. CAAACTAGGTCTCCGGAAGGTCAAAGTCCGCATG
6. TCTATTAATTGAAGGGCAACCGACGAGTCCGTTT

**A:**
[2.72, 0.899, 6.28, 4.76, 4.82, 0.956]

----------
System: PPARg:RXRa 30nM:10nM, anti-RXR (NR concentration 30 nM, RXRa partner concentration 10 nM)
Experiment: PBM binding z-score (relative to random genomic background probes); higher = stronger binding; sequences stand for … in GC…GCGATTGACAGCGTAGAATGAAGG
property_measured: PBM binding z-score

For orientation, consider the following solved cases.
>>> result("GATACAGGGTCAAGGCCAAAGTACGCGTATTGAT")
2.37
>>> result("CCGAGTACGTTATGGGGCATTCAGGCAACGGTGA")
-0.465
>>> result("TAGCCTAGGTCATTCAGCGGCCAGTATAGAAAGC")
0.564
>>> result("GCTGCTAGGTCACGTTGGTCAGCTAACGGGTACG")
1.1
>>> result("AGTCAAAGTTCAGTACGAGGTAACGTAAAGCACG")
1.8
>>> result("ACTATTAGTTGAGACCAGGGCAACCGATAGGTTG")
0.00186

Could you tell me PBM binding z-score for each of these sequences? They are listed below.
1. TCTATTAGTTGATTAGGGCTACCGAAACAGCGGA
2. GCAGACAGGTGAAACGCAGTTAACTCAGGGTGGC
3. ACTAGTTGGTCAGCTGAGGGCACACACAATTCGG

**A:**
3.84
-0.977
0.27

Could you tell me PBM binding z-score for each of these sequences? They are listed below.
1. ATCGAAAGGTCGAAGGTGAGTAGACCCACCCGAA
2. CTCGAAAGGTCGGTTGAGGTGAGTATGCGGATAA
3. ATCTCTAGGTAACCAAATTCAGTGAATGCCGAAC
4. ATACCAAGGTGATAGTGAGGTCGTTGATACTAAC
5. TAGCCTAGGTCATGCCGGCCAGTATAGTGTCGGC
6. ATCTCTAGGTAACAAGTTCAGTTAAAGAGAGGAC

**A:**
1. 1.93
2. 0.131
3. 0.182
4. 0.458
5. 0.0348
6. 0.996

Could you tell me PBM binding z-score for each of these sequences? They are listed below.
1. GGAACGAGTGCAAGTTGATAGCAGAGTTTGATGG
2. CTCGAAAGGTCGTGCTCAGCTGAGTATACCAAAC
3. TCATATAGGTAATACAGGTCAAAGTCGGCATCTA
4. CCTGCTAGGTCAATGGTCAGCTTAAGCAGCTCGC
5. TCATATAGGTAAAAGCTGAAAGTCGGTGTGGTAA
6. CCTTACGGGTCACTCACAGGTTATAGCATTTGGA
7. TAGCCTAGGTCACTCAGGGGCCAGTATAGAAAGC

**A:**
1: -0.349; 2: 0.929; 3: 4.34; 4: 2.37; 5: 3.52; 6: 1.29; 7: 0.26

Could you tell me PBM binding z-score for each of these sequences? They are listed below.
1. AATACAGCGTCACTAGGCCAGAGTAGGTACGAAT
2. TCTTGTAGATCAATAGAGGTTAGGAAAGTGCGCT

**A:**
[0.103, 3.13]

Could you tell me PBM binding z-score for each of these sequences? They are listed below.
1. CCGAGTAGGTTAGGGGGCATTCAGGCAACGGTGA
2. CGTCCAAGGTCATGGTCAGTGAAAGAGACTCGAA

**A:**
1. 5.18
2. 2

Could you tell me PBM binding z-score for each of these sequences? They are listed below.
1. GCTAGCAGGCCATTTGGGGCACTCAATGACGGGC
2. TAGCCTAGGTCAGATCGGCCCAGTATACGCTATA

**A:**
1: -0.304; 2: -0.286

Could you tell me PBM binding z-score for each of these sequences? They are listed below.
1. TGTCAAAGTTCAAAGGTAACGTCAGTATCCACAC
2. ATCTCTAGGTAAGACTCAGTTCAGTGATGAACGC
3. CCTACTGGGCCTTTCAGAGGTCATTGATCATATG
4. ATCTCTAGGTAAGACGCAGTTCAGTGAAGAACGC
5. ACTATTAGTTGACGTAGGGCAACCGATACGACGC
6. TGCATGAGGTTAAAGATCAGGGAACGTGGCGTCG

**A:**
[5.71, 0.243, 0.333, 0.101, 0.129, 2.43]

Could you tell me PBM binding z-score for each of these sequences? They are listed below.
1. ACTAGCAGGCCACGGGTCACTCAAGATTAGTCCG
2. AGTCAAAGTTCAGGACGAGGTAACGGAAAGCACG
3. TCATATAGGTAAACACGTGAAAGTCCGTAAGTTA
4. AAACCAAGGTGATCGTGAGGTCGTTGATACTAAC

**A:**
1.75
1.83
3.63
-0.322

Origin of values: the supplement of paper PMC6555819
